Assign pKi to each entry below.
- TESTED SYSTEM: sigma-1 binding site (Cavia porcellus, UniProt Q60492)
- Construct: Guinea pig whole membrane preparations (P2 microsomal fraction); from tissue; host or cells: guinea pig membranes (P2 microsomal fraction), as described by Weber et al; brain inferred from the sister test b489
- Sequence (Q60492 whole entry): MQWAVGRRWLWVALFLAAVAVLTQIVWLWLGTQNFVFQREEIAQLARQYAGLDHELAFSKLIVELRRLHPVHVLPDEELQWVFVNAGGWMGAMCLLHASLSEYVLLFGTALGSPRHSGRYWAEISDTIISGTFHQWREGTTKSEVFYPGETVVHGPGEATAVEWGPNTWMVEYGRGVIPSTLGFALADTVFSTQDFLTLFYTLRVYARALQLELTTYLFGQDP
- MEASUREMENT PROTOCOL: biochemical
- Parameters: species or system guinea pig
- SETUP CONDITIONS: Table 10; read-out: SIGMA-1 KI vs. 3H-PENTAZOCINE MEAN
Answers are plain numbers, as −log10 of the molar value.

>>> numeric_value("O=C1c2ccccc2C(=O)N1CCCN1CCN(c2ccccc2)CC1")
5.51
>>> numeric_value("c1ccc(CCCCCCCNCCc2ccccc2)cc1")
8.83

Field: next compound
Reported pKi for c1ccc(CCCNCCCc2ccccc2)cc1 : what is it?
7.94

###

- TESTED SYSTEM: sigma receptor
- MEASUREMENT PROTOCOL: Sigma receptor binding, [^3 H]DTG, brain membranes (both sigma-1 and sigma-2 sites)
- Design: species or system guinea pig
- SETUP CONDITIONS: Table 6; [^3 H]DTG
Where a name gives a salt, the structure may show the parent alone.
MEASURE: IC50
Hey, just the number and the unit after it is fine.

For orientation, consider the following solved cases.
>>> result("CNCCCCCC1CCCCC1")
"10.6 nM"
>>> result("Oc1cccc(CCNCCCCCc2ccccc2)c1 [Compound 172, Hydrobromide]")
"7.46 nM"
>>> result("O=C(CCCCN1CCC(c2ccc(Cl)cc2)CC1)c1ccc(Cl)c(Cl)c1")
"1.98 nM"
>>> result("CN1CCN(CCCCc2ccccc2)CC1")
"49.8 nM"

Hi, could you look up IC50 for each item in my list?
1. C[C@@H](Cc1ccccc1)N(C)CCCc1ccccc1
2. OC1(Cc2ccccc2)CCN(CCCCCc2ccccc2)CC1
3. CC(C)(C)C1(O)CCN(CCc2ccccc2)CC1
4. CN1CCN(CC/C=C\c2cccc(C(F)(F)F)c2)CC1
5. CN1C2CCC1CC(O)(c1ccccc1)C2 (stereo not shown)

["2.22 nM", "2.14 nM", "21.5 nM", "9.5 nM", "3960 nM"]

Hi, could you look up IC50 for each item in my list?
1. c1ccc(CCCCN2CCC(c3ccccc3)CC2)cc1
2. c1ccc(CCCCCNCCCCc2ccccc2)cc1
3. O=C(CCCCN1CCCCC1)c1ccc(F)cc1

0.88 nM
2.65 nM
7.37 nM

Reported IC50 for CCCN(CCCc1ccccc1)[C@@H](C)Cc1ccccc1 : what is it?
6.44 nM

###

Assign pIC50 to each entry below.
- TESTED SYSTEM: UniProt P19327
- MEASUREMENT PROTOCOL: biochemical
- Assay type: binding
- Set-up: 47: 529-540 (1986); from tissue; host or cells: brain tissue, inferred from the cited method (rat frontal cortex)
- SETUP CONDITIONS: Table 5; read-out: 5-HT1A IC50
One number for each entry, as −log10 of the molar value.

For orientation, consider the following solved cases.
>>> numeric_value("c1ccc(CCCNC2Cc3ccccc3C2)cc1 [Compound 14]")
6.81
>>> numeric_value("COc1ccc(CC(C)NCCCc2ccccc2)cc1 (stereo not drawn) [Compound 19]")
6.94

Field: next molecule
Reported pIC50 for c1ccc(CCCN2CCC(c3ccccc3)CC2)cc1 [Compound 39] : what is it?
7.05

###

- TESTED SYSTEM: 5-HT1A receptor (Rattus norvegicus, UniProt P19327)
- Sequence (P19327 whole entry): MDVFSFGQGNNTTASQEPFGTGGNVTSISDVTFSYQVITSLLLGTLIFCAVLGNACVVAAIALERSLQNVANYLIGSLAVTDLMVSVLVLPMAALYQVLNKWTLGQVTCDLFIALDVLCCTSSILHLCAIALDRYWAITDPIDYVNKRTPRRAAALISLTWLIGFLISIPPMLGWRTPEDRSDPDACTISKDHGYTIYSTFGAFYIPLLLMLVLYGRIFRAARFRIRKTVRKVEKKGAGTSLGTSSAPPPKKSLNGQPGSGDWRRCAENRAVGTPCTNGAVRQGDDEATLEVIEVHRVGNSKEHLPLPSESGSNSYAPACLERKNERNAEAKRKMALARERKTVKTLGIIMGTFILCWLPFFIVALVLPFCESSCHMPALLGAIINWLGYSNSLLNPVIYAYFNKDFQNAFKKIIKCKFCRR
- MEASUREMENT PROTOCOL: biochemical
- Format: binding
- Set-up: 47: 529-540 (1986); from tissue; host or cells: brain tissue, inferred from the cited method (rat frontal cortex)
- SETUP CONDITIONS: Table 5; read-out: 5-HT1A IC50
Assign pIC50 to each entry below.
Give bare numbers, as −log10 of the molar value.

>>> numeric_value("C[C@H](Cc1ccccc1)NCCC(=O)c1ccccc1")
6.91
>>> numeric_value("CC(Cc1cccc(C(F)(F)F)c1)NCCCc1ccccc1 (racemic)")
6.98
>>> numeric_value("c1ccc(CCCCN2CCN(c3ccccc3)CC2)cc1")
8.20
>>> numeric_value("c1ccc(CCNCCCc2ccc3ccccc3c2)cc1")
7.46
>>> numeric_value("CCN[C@H](C)Cc1ccccc1")
5.39
>>> numeric_value("c1ccc(CCCN2CCN(c3ccc4ccccc4c3)CC2)cc1")
6.55
>>> numeric_value("Clc1cccc(N2CCN(CCCc3ccccc3)CC2)c1")
7.29
>>> numeric_value("C[C@H](Cc1ccccc1)NCC#Cc1ccccc1")
6.12

Hi, could you look up pIC50 for each item in my list?
1. Clc1ccc(C2=CCN(CCCCc3ccccc3)CC2)cc1
2. C[C@H](Cc1ccccc1)NCCCc1ccc2ccccc2c1

[6.97, 6.88]

Hi, could you look up pIC50 for each item in my list?
1. C[C@H](N[C@@H](C)Cc1ccccc1)c1ccccc1
2. C[C@H](Cc1ccccc1)NCc1ccccc1

5.00
5.42

###

- TESTED SYSTEM: sigma-1 binding site (Cavia porcellus, UniProt Q60492)
- Construct: Guinea pig whole membrane preparations (P2 microsomal fraction); from tissue; host or cells: guinea pig membranes (P2 microsomal fraction), as described by Weber et al; brain inferred from the sister test b489
- MEASUREMENT PROTOCOL: biochemical
- Design: species or system guinea pig
- SETUP CONDITIONS: Table 10; sigma-1/sigma-2
- Procedure: [^3 H]DTG was purchased from DuPont/NEN. The radioactivity on the filters was determined by scintillation spectrometry at an efficiency of about 50% using Cytoscint (ICN) scintillation fluid.
MEASURE: S1/S2 Ratio
Answers are plain numbers.

For orientation, consider the following solved cases.
>>> numeric_value("CCOc1ccc(CC(C)NCCCc2ccccc2)cc1 (racemic) [Compound 83]")
0.101
>>> numeric_value("NCCCCCC1CCCCC1.O=C(O)C(=O)O [Compound 126, 5-Cyclohexylpentylamine Hydrogen Oxalate]")
0.075
>>> numeric_value("CNCCCCCC1CCCCC1 [Compound 127, N-methyl-5-cyclohexylpentylamine]")
0.020
>>> numeric_value("CN1CCN(CC/C=C\\c2cccc(C(F)(F)F)c2)CC1 [Compound 105]")
0.008

Hi, could you look up S1/S2 Ratio for each item in my list?
1. CC(Cc1cccc(C(F)(F)F)c1)NCCCc1ccccc1 (racemic) [Compound 23]
2. C[C@@H](Cc1ccccc1)N(C)CCCc1ccccc1 [Compound 113]

[0.420, 0.105]

Hi, could you look up S1/S2 Ratio for each item in my list?
1. CCC(Cc1ccccc1)NCCCCc1ccccc1 (stereo not drawn) [Compound 101, N-(4-phenylbutyl)-1-phenyl-2-butylamine]
2. CC(Cc1ccccc1)NCCCCc1ccccc1 (racemic) [Compound 10]
3. CN1CCN(CCCCc2ccccc2)CC1 [Compound 106, N-(4-phenyl)-N'-methylpiperazine]
4. c1ccc(CCCCCN2CCCCC2)cc1 [Compound 124, N-(5-phenylpentyl)piperidine]

0.026
0.088
0.022
0.010

###

- TESTED SYSTEM: sigma-1 binding site (Cavia porcellus, UniProt Q60492)
- Construct: Guinea pig whole membrane preparations (P2 microsomal fraction); from tissue; host or cells: guinea pig membranes (P2 microsomal fraction), as described by Weber et al; brain inferred from the sister test b489
- MEASUREMENT PROTOCOL: biochemical
- Parameters: species or system guinea pig
- SETUP CONDITIONS: Table 10; read-out: SIGMA-1 KI vs. 3H-PENTAZOCINE MEAN
MEASURE: Ki
Hey, just the number and the unit after it is fine.

For orientation, consider the following solved cases.
>>> result("CCOc1ccc(CC(C)NCCCc2ccccc2)cc1 (racemic)")
"3.38 nM"
>>> result("c1ccc2cc(N3CCNCC3)ccc2c1")
"220 nM"
>>> result("c1ccc(CCCN2CCCCC2)cc1")
"48.9 nM"
>>> result("OC1(c2ccccc2)CCN(CCCc2ccccc2)CC1")
"0.68 nM"
>>> result("CN(C)CCCCCC1CCCCC1")
"0.26 nM"

Hi, could you look up Ki for each item in my list?
1. CNCCCCCC1CCCCC1
2. CC(Cc1cccc(Br)c1)NCCCc1ccccc1 (racemic)
3. COc1ccccc1N1CCN(CCCCN2C(=O)c3ccccc3C2=O)CC1

1: 6.78 nM; 2: 9.65 nM; 3: 512 nM

Reported Ki for C[C@@H](Cc1ccccc1)N(C)CCCc1ccccc1 : what is it?
0.51 nM

###

- TESTED SYSTEM: sigma receptor
- MEASUREMENT PROTOCOL: Sigma receptor binding, [^3 H]DTG, brain membranes (both sigma-1 and sigma-2 sites)
- Parameters: species or system guinea pig
- SETUP CONDITIONS: Table 6; [^3 H]DTG
Where a name gives a salt, the structure may show the parent alone.
MEASURE: IC50 (nM)
Give bare numbers, in nM.

For orientation, consider the following solved cases.
>>> numeric_value("OC1(c2ccccc2)CCN(CCc2ccccc2)CC1")
6.43
>>> numeric_value("CCC(Cc1ccccc1)NCCCCc1ccccc1 (stereo not shown)")
15.7
>>> numeric_value("CN1CCN(CC/C=C\\c2ccccc2)CC1")
76.2
>>> numeric_value("CC(C)=CCN(C)[C@@H](C)Cc1ccccc1")
6.71
>>> numeric_value("O=C1c2ccccc2C(=O)N1CCCCN1CCN(c2ccccc2)CC1")
20.3
>>> numeric_value("CN(CCCCCc1ccccc1)Cc1ccccc1")
1.11

Hi, could you look up IC50 for each item in my list?
1. COc1cc(CC(C)NCCCCc2ccccc2)c(OC)cc1Br (stereo not shown)
2. c1ccc(CCCNC2CCCc3ccccc3C2)cc1 (stereo not shown)
3. NCCCCCC1CCCCC1.O=C(O)C(=O)O [Compound 126, 5-Cyclohexylpentylamine Hydrogen Oxalate]
4. O=C(CCCN1CCCCC1)c1ccc(F)cc1
5. c1ccc(CCCCCNCC2CCCCC2)cc1
6. c1ccc(CCCNCCc2ccc3ccccc3c2)cc1
7. COc1ccc(CCNCCCCCc2ccccc2)cc1

[45.1, 59.6, 219, 42.9, 1.4, 53.4, 2.38]

Hi, could you look up IC50 for each item in my list?
1. O=C(c1ccccc1)N1CCNCC1
2. CN1CCC(O)(c2ccc(Cl)cc2)CC1
3. COc1ccc(C(=O)CCCCN2CCC(c3ccccc3)CC2)cc1
4. COc1ccccc1C1(O)CCNCC1

[11800, 131, 0.9, 14800]

Hi, could you look up IC50 for each item in my list?
1. O=C(CCCCN1CCC(c2ccccc2)CC1)c1ccc(Cl)cc1
2. O=C(CCCCN1CC=C(c2ccc(F)cc2)CC1)c1ccc(Cl)cc1
3. c1ccc(CCCCCCCNCCc2ccccc2)cc1
4. C[C@@H](Cc1ccccc1)N(C)CCCCCc1ccccc1
5. c1ccc(CCCCCNCCCc2ccccc2)cc1

1: 0.62; 2: 2.24; 3: 4.07; 4: 2.25; 5: 2.73

Hi, could you look up IC50 for each item in my list?
1. CCCCCCN(C)CCc1ccccc1 [Compound 130, Oxalate]
2. CN(C)CCCCCC1CCCCC1
3. C(CCNCC1CCCCC1)CCC1CCCCC1 [Compound 151, Hydrochloride]
4. c1ccc(CCCCNCCc2ccccc2)cc1
5. CC(Cc1ccc(OCc2ccccc2)cc1)NCCCc1ccccc1 (stereo not shown)

1: 4.23; 2: 2.87; 3: 1.39; 4: 5.68; 5: 28.1

Hi, could you look up IC50 for each item in my list?
1. c1ccc(CCCCCN2CCC(Cc3ccccc3)CC2)cc1
2. c1ccc(CCCCNCCCc2ccccc2)cc1
3. c1ccc(CN2CCCCC2)cc1

1: 2.11; 2: 7.23; 3: 117

Hi, could you look up IC50 for each item in my list?
1. CCCc1ccc(CC(C)NCCCc2ccccc2)cc1 (stereo not shown)
2. c1ccc(CCCCCCCNCc2ccccc2)cc1
3. COc1cccc(C(=O)CCCCN2CCC(c3ccccc3)CC2)c1
4. c1ccc(CNCCCCCC2CCCCC2)cc1

1: 6.43; 2: 3.95; 3: 1.1; 4: 4.02
